Experiment: Pharmacokinetic study in rats after oral administration of TMYX extract (HPLC-MS/MS of plasma)
Assay type: in vivo, Sprague–Dawley rats
Conditions: male, Sprague-Dawley; rat plasma, oral TMYX extract 8.3 g/kg single dose, n=6; read-out: K e (converted)

compound	k el
OC[C@H]1O[C@@H](Oc2c(O)cc(O)cc2/C=C/c2ccc(O)cc2)[C@H](O)[C@@H](O)[C@@H]1O [stilbene glycoside]	0.000125 s⁻¹
COc1cc2c(c(OC)c1OC)-c1c(cc(OC)c(OC)c1OC)C[C@](C)(O)[C@@H](C)C2 [schisandrin]	9.44e-05 s⁻¹
O=C1C[C@@H](c2ccc(O[C@@H]3O[C@H](CO)[C@@H](O)[C@H](O)[C@H]3O)cc2)Oc2cc(O)ccc21 [liquiritin]	0.000214 s⁻¹
C[C@@H]1O[C@@H](O[C@@H]2[C@@H](O)[C@H](OCCc3ccc(O)c(O)c3)O[C@H](CO)[C@H]2OC(=O)/C=C/c2ccc(O)c(O)c2)[C@H](O)[C@H](O)[C@H]1O [verbascoside]	0.000156 s⁻¹

====

// reported Measured Concentration, three freeze-thaw cycles per item
Assay: Stability of analytes in rat plasma QC samples under storage conditions
Assay type: in vitro ADME
Settings: rat plasma, n=6; high QC: spiked 2000 ng/mL glycyrrhizic acid; 1000 liquiritin; 200 emodin, gallic acid, ononin, schisandrin, stilbene glycoside; 100 isoliquiritigenin, liquiritigenin, rhein, verbascoside
quantityName: Measured Concentration, three freeze-thaw cycles (ng/mL)

compound	reported
Cc1cc(O)c2c(c1)C(=O)c1cc(O)cc(O)c1C2=O	197.74
O=C1C[C@@H](c2ccc(O)cc2)Oc2cc(O)ccc21	92.59
C[C@@H]1O[C@@H](O[C@@H]2[C@@H](O)[C@H](OCCc3ccc(O)c(O)c3)O[C@H](CO)[C@H]2OC(=O)/C=C/c2ccc(O)c(O)c2)[C@H](O)[C@H](O)[C@H]1O [verbascoside]	108.42
OC[C@H]1O[C@@H](Oc2c(O)cc(O)cc2/C=C/c2ccc(O)cc2)[C@H](O)[C@@H](O)[C@@H]1O [stilbene glycoside]	200.45
COc1cc2c(c(OC)c1OC)-c1c(cc(OC)c(OC)c1OC)C[C@](C)(O)[C@@H](C)C2	189.32
CC1(C)[C@@H](O[C@H]2O[C@H](C(=O)O)[C@@H](O)[C@H](O)[C@H]2O[C@@H]2O[C@H](C(=O)O)[C@@H](O)[C@H](O)[C@H]2O)CC[C@]2(C)[C@H]3C(=O)C=C4[C@@H]5C[C@@](C)(C(=O)O)CC[C@]5(C)CC[C@@]4(C)[C@]3(C)CC[C@@H]12	1869.00

====

// reported Measured Concentration, room temperature for 6 h per item
Experiment: Stability of analytes in rat plasma QC samples under storage conditions
Type: in vitro ADME
Conditions: rat plasma, n=6; high QC: spiked 2000 ng/mL glycyrrhizic acid; 1000 liquiritin; 200 emodin, gallic acid, ononin, schisandrin, stilbene glycoside; 100 isoliquiritigenin, liquiritigenin, rhein, verbascoside
quantityName: Measured Concentration, room temperature for 6 h (ng/mL)

compound	unitsSymbol	reported
CC1(C)[C@@H](O[C@H]2O[C@H](C(=O)O)[C@@H](O)[C@H](O)[C@H]2O[C@@H]2O[C@H](C(=O)O)[C@@H](O)[C@H](O)[C@H]2O)CC[C@]2(C)[C@H]3C(=O)C=C4[C@@H]5C[C@@](C)(C(=O)O)CC[C@]5(C)CC[C@@]4(C)[C@]3(C)CC[C@@H]12 [glycyrrhizic acid]	ng/mL	2099.10
O=C(/C=C/c1ccc(O)cc1)c1ccc(O)cc1O [isoliquiritigenin]	ng/mL	106.11
O=C1C[C@@H](c2ccc(O)cc2)Oc2cc(O)ccc21 [liquiritigenin]	ng/mL	112.69
O=C1C[C@@H](c2ccc(O[C@@H]3O[C@H](CO)[C@@H](O)[C@H](O)[C@H]3O)cc2)Oc2cc(O)ccc21 [liquiritin]	ng/mL	1076.07
COc1cc2c(c(OC)c1OC)-c1c(cc(OC)c(OC)c1OC)C[C@](C)(O)[C@@H](C)C2 [schisandrin]	ng/mL	194.61
COc1ccc(-c2coc3cc(O[C@@H]4O[C@H](CO)[C@@H](O)[C@H](O)[C@H]4O)ccc3c2=O)cc1 [ononin]	ng/mL	216.32
O=C(O)c1cc(O)c(O)c(O)c1 [gallic acid]	ng/mL	205.97
C[C@@H]1O[C@@H](O[C@@H]2[C@@H](O)[C@H](OCCc3ccc(O)c(O)c3)O[C@H](CO)[C@H]2OC(=O)/C=C/c2ccc(O)c(O)c2)[C@H](O)[C@H](O)[C@H]1O [verbascoside]	ng/mL	103.95
O=C(O)c1cc(O)c2c(c1)C(=O)c1cccc(O)c1C2=O [rhein]	ng/mL	101.97
OC[C@H]1O[C@@H](Oc2c(O)cc(O)cc2/C=C/c2ccc(O)cc2)[C@H](O)[C@@H](O)[C@@H]1O [stilbene glycoside]	ng/mL	202.79
Cc1cc(O)c2c(c1)C(=O)c1cc(O)cc(O)c1C2=O [emodin]	ng/mL	207.49

====

Test: Stability of analytes in rat plasma QC samples under storage conditions
Format: in vitro ADME
Settings: prepared rat plasma samples, n=6; medium QC: spiked 200 ng/mL glycyrrhizic acid; 100 liquiritin; 20 emodin, gallic acid, ononin, schisandrin, stilbene glycoside; 10 isoliquiritigenin, liquiritigenin, rhein, verbascoside
// reported Measured Concentration, auto-sampler for 12 h per item
quantityName: Measured Concentration, auto-sampler for 12 h (ng/mL)

molecule	unitsSymbol	reported
CC1(C)[C@@H](O[C@H]2O[C@H](C(=O)O)[C@@H](O)[C@H](O)[C@H]2O[C@@H]2O[C@H](C(=O)O)[C@@H](O)[C@H](O)[C@H]2O)CC[C@]2(C)[C@H]3C(=O)C=C4[C@@H]5C[C@@](C)(C(=O)O)CC[C@]5(C)CC[C@@]4(C)[C@]3(C)CC[C@@H]12	ng/mL	200.96
C[C@@H]1O[C@@H](O[C@@H]2[C@@H](O)[C@H](OCCc3ccc(O)c(O)c3)O[C@H](CO)[C@H]2OC(=O)/C=C/c2ccc(O)c(O)c2)[C@H](O)[C@H](O)[C@H]1O [verbascoside]	ng/mL	9.50
O=C(O)c1cc(O)c2c(c1)C(=O)c1cccc(O)c1C2=O	ng/mL	9.86
OC[C@H]1O[C@@H](Oc2c(O)cc(O)cc2/C=C/c2ccc(O)cc2)[C@H](O)[C@@H](O)[C@@H]1O [stilbene glycoside]	ng/mL	19.00
O=C(/C=C/c1ccc(O)cc1)c1ccc(O)cc1O	ng/mL	9.60
O=C1C[C@@H](c2ccc(O)cc2)Oc2cc(O)ccc21	ng/mL	8.63

====

// reported Measured Concentration, auto-sampler for 12 h per item
Assay: Stability of analytes in rat plasma QC samples under storage conditions
Type: in vitro ADME
Details: prepared rat plasma samples, n=6; medium QC: spiked 200 ng/mL glycyrrhizic acid; 100 liquiritin; 20 emodin, gallic acid, ononin, schisandrin, stilbene glycoside; 10 isoliquiritigenin, liquiritigenin, rhein, verbascoside
quantityName: Measured Concentration, auto-sampler for 12 h (ng/mL)

>>> print(df.to_string())
                                smilesinput  reported
0                   O=C(O)c1cc(O)c(O)c(O)c1     19.27
1  COc1ccc(-c2coc3cc(O[C@@H]4O[C@H](CO)[C@@H](O)[C@H](O)[C@H]4O)ccc3c2=O)cc1     18.84
2    Cc1cc(O)c2c(c1)C(=O)c1cc(O)cc(O)c1C2=O     19.88
3  COc1cc2c(c(OC)c1OC)-c1c(cc(OC)c(OC)c1OC)C[C@](C)(O)[C@@H](C)C2     18.35
4  O=C1C[C@@H](c2ccc(O[C@@H]3O[C@H](CO)[C@@H](O)[C@H](O)[C@H]3O)cc2)Oc2cc(O)ccc21    108.02

====

Experiment: Pharmacokinetic study in rats after oral administration of TMYX extract (HPLC-MS/MS of plasma)
Assay type: in vivo, Sprague–Dawley rats
Settings: rat plasma, oral TMYX extract 8.3 g/kg single dose, n=6
Note to self: class labels come from recorded C max1, ranges listed here: label 0 (below 40 ng/mL), label 1 (40 ng/mL to below 90 ng/mL), label 2 (90 ng/mL or more)

molecule	qualitativeLabel
O=C1C[C@@H](c2ccc(O)cc2)Oc2cc(O)ccc21	label 0
CC1(C)[C@@H](O[C@H]2O[C@H](C(=O)O)[C@@H](O)[C@H](O)[C@H]2O[C@@H]2O[C@H](C(=O)O)[C@@H](O)[C@H](O)[C@H]2O)CC[C@]2(C)[C@H]3C(=O)C=C4[C@@H]5C[C@@](C)(C(=O)O)CC[C@]5(C)CC[C@@]4(C)[C@]3(C)CC[C@@H]12	label 2
O=C(O)c1cc(O)c2c(c1)C(=O)c1cccc(O)c1C2=O	label 1
COc1ccc(-c2coc3cc(O[C@@H]4O[C@H](CO)[C@@H](O)[C@H](O)[C@H]4O)ccc3c2=O)cc1	label 0
OC[C@H]1O[C@@H](Oc2c(O)cc(O)cc2/C=C/c2ccc(O)cc2)[C@H](O)[C@@H](O)[C@@H]1O [stilbene glycoside]	label 2
C[C@@H]1O[C@@H](O[C@@H]2[C@@H](O)[C@H](OCCc3ccc(O)c(O)c3)O[C@H](CO)[C@H]2OC(=O)/C=C/c2ccc(O)c(O)c2)[C@H](O)[C@H](O)[C@H]1O [verbascoside]	label 0
O=C(O)c1cc(O)c(O)c(O)c1	label 1
O=C(/C=C/c1ccc(O)cc1)c1ccc(O)cc1O	label 1
O=C1C[C@@H](c2ccc(O[C@@H]3O[C@H](CO)[C@@H](O)[C@H](O)[C@H]3O)cc2)Oc2cc(O)ccc21	label 2
